- SYSTEM NAME: T1, HLA-DR7 (DRB1*0701) (human)
- T1 construct: Purified HLA class II molecule
- METHOD NOTES: competition with 125I-labelled probe peptide on purified HLA-DR, gel filtration; IC50 of standard peptide / IC50 of test peptide
PARAMETER MEASURED: relative binding ratio
Include the unit after the number when you answer.

// query Recorded relative binding ratio of ETELVEPLTPSGAMP (also called Her2/neu.693) [HER2/neu peptide ETELVEPLTPSGAMP (position 693)] , please.
// result -0.0013 ratio

// query Consider next the binder IKVLRENTSPKANKE (also called Her2/neu.752) [HER2/neu peptide IKVLRENTSPKANKE (position 752)] in the same way.
// result -0.0011 ratio

// query Lookup DMKLRLPASPETHLD (also called Her2/neu.30) [HER2/neu peptide DMKLRLPASPETHLD (position 30)]
// result -0.0013 ratio

// query How about this binder: GTDMKLRLPASPETH (also called Her2/neu.28) [HER2/neu peptide GTDMKLRLPASPETH (position 28)]
// result -0.0013 ratio
